System: Mus musculus
Experiment: Compound tested for in vivo writhing antinociceptive assay in mouse after subcutaneous administration
Assay type: functional
Settings: sc
REPORTED PROPERTY: log10(ED50) (log10 of the value in µmol/kg)
Please be aware that the numbers have been log10-transformed from ED50 in µmol/kg.

Solved entries:
INSERT INTO results (molecule, quantitative_readout) VALUES
  ('COc1cc(C/N=C(\S)NCCc2ccc(Cl)cc2)ccc1O', 1.00),
  ('COc1cc(C/N=C(\S)NCCc2ccc(Cl)cc2)ccc1OCCN', 0.52);

Batch of 3 molecules: report log10(ED50) for each.
1. COc1cc(C/N=C(\S)NCc2ccc(C(C)(C)C)cc2)ccc1OCCN
2. CCCCCCCC/C=C\CCCCCCCC(=O)NCc1ccc(O)c(OC)c1 [OLVANIL]
3. COc1cc(CNC(=O)CCCC/C=C/C(C)C)ccc1O [CAPSAICIN]

1. -0.31
2. 0.32
3. 0.76

Respond only with log10(ED50) recorded for CCCCCCCC/C=C\CCCCCCCC(=O)NCc1ccc(OCCN)c(OC)c1 0.49

Recorded values, source ChEMBL document CHEMBL1129594.
